Entry source: ChEMBL document CHEMBL3507680

experiment: Human HepG2 cell viability assay in 384 well format; format: toxicity, cell-based; design: dose 125 nL, time 70.5 hour; concentration not given beside the values; details: HepG2 cells, read-out: Inhibition
Listed molecules paired with reported cytotoxicity at 70.5 h
Enter your answer as a number in %; do not include the unit.

molecule O=C(NCCc1cccnc1)C1CCCN(Cc2ccco2)C1 (centres undefined) , cytotoxicity at 70.5 h observed: 16.1

molecule COc1ccccc1CC(=O)N1CCCC(CNS(C)(=O)=O)C1 (centres undefined) , cytotoxicity at 70.5 h observed: -9.26

molecule `O=c1c(S(=O)(=O)N2CCCCC2)cccn1Cc1ccccc1Cl` , cytotoxicity at 70.5 h observed: -1.51

Then this molecule:
molecule `CCc1nc(-c2ccc(NC(=O)N3CCOCC3)cc2)no1` , cytotoxicity at 70.5 h observed: -3.86
